This section presents molecules with their documented inhibition values.
Biological target: Bifunctional protein GlmU (Mycobacterium tuberculosis (strain ATCC 25618 / H37Rv)) (UniProt P9WMN3)
Sequence (P9WMN3 whole entry, looked up): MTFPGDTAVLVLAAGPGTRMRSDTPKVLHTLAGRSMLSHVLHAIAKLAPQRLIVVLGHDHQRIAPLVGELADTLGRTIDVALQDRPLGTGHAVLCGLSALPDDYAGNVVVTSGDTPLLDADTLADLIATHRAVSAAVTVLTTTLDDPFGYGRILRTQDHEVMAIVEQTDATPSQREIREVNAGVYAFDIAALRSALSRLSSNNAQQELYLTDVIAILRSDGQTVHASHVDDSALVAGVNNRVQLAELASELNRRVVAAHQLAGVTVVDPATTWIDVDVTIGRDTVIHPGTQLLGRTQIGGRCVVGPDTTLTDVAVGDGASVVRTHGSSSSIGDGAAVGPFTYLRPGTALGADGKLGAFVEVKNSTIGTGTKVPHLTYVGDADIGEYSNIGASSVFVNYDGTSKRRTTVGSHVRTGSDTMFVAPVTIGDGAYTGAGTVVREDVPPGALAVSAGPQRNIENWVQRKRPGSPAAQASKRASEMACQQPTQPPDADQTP
Experiment: inhibition of mycobacterial GlmU enzyme – biochemical, glucosamine-1-phosphate acetyltransferase (AID 1376);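 also: 0% = complete reaction with vehicle and 100% = reaction without substrate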
Details: M. tuberculosis GlmU acetyltransferase enzyme assay; hits give high values;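 tested at 30 µM in the primary screen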
Screen size: about 220,000 compounds; about 530 (0.24%) were called active. Shown is part of a subset that was picked to be rich in actives. Measured potencies and affinities stand elsewhere.
EXPERIMENTAL_ENDPOINT: inhibition (%)

MOLECULE | MEASURED
COc1ccc(C(C(=O)NC(C)(C)C)N(Cc2ccc(C)cc2)C(=O)CCC(=O)Nc2cc(C)on2)cc1 (stereo unspecified) | 5.39
O=C(O)CCCN1C(=O)/C(=C\c2ccco2)SC1=S | 23.1
N#C/C(=C/c1cccn1-c1cccc(C(=O)O)c1)c1ccc(Cl)cc1 | 7.87
OCCNc1nc(Nc2ccccc2Cl)nc(N2CCCC2)n1 | 2.46
CCOC(=O)Cn1c(-c2ccccc2)ccc(C#N)c1=O | -5.69
Cc1cccc(CN2C(=O)c3ccccc3Sc3ccc(C(=O)O)cc32)c1 | 14.3
Cc1ccc(C(C)C)cc1NC(=O)Nc1ccc([N+](=O)[O-])cc1 | -2.4
O=C(CSc1nc2ccccc2n1CCc1ccccc1)N1CCOCC1 | -3.44
CCN(CC)CCN(Cc1cc2ccc(C)cc2[nH]c1=O)C(=O)NC1CCCCC1 | 14.2
O=C(/C=C/c1ccco1)Nc1ccccc1C(=O)Nc1cccc(C(=O)O)c1 | 3.1
FC(F)(F)c1cnc(NNC(=S)Nc2cccnc2)c(Cl)c1 | 2.72
O=C(CSc1nc2ccccc2n1CCc1ccccc1)c1ccc(O)c(O)c1 | 23.3
O=C(O)c1ccc(COc2ccccc2/C=C2/NC(=O)N(c3cccc(Cl)c3)C2=O)cc1 | -4.52
Cc1cccc2cc3c(NC(=O)CC(C)C)nn(C)c3nc12 | 0.35
O=C(NNS(=O)(=O)c1ccccc1)c1sccc1-n1cccc1 | -3.8
Cc1ccc(OCc2ccc(C(=O)Nc3nc4ccccc4n3C)o2)c([N+](=O)[O-])c1 | 2.65
O=C(O)c1cccc(-n2cccc2/C=C2\NC(=O)N(Cc3ccc(F)cc3)C2=O)c1 | 13.9
COC(=O)c1ccc(OCC(=O)c2ccccc2)cc1 | 2.96
CNC(=O)COC(=O)c1cc2c(s1)CCCC2 | -3.54
O=C(/C=C/c1ccco1)Nc1cccc(C(=O)Nc2ccccc2C(=O)O)c1 | 14.7
CCOc1cc(S(=O)(=O)NCCc2ccccc2C)c(OCC)cc1-n1cnnn1 | 1.72
CCc1nc(-c2ccccc2)c2ccccn12 | 0.63
C=CCN1C(=NC(=O)CCC(=O)O)SC2CS(=O)(=O)CC21 (stereo unspecified) | 0.93
O=C(CSc1nc2ccccc2n1CCc1ccccc1)NC1CC1 | 0.08
Cc1ccccc1NS(=O)(=O)c1ccc2[nH]cc(C(=O)N(C)Cc3ccco3)c(=O)c2c1 | 29.4
CCCCCOc1ccc(C(=O)N(Cc2ccco2)C2CCS(=O)(=O)C2)cc1 (stereo unspecified) | 2.23
O=C(NNS(=O)(=O)c1cc(Cl)cc(Cl)c1)c1sccc1-n1cccc1 | 13.9
COC(=O)c1ccccc1NC(=O)/C=C/c1ccco1 | -3.26
COc1cccc2c1OC1(C)CC2NC(=O)N1 (stereo unspecified) | 7.2
O=C(O)c1cccc(-n2cccc2/C=C2/NC(=O)N(c3ccc(Cl)cc3)C2=O)c1 | 68.6
O=C(O)c1cccc(-n2cccc2/C=C2/NC(=O)N(Cc3ccccc3F)C2=O)c1 | 7.3
COCCNC(=O)c1cc2c(=O)n3cccc(C)c3nc2n1C | 3.57
O=C(/C=C/c1ccco1)Nc1ccccc1C(=O)O | 15
CCn1c(-c2ccccc2)ccc(C#N)c1=O | 14.1
CCc1ccccc1NC(=O)c1cccc(NC(=O)/C=C/c2ccco2)c1 | -2.87
COc1ccc2cc(-c3[nH]ncc3CN3CCCCO3)ccc2c1 | -2.52
